// reported polymerase ribozyme fitness (log ratio) per item
B1: TPR t1 (parent)
chain: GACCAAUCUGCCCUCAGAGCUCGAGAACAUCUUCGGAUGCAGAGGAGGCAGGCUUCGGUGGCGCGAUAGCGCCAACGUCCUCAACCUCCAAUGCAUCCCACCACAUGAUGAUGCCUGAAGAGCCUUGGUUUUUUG

Variants of: B1
Protocol description: polymerase ribozyme fitness, log enrichment relative to wild type (log ratio); higher = more active; in vitro selection for triplet polymerase activity
Parameter: polymerase ribozyme fitness (log ratio)

>  <Mutations>
G45A A111C

>  <Experimental value>
-0.541

$$$$
>  <Mutations>
G117C U131A

>  <Experimental value>
-4.01

$$$$
>  <Mutations>
U116A A121G

>  <Experimental value>
0.178

$$$$
>  <Mutations>
C13U G60A

>  <Experimental value>
0.0451

$$$$
>  <Mutations>
C13U G17A

>  <Experimental value>
-1.44

$$$$
>  <Mutations>
C28U G52U G120C

>  <Experimental value>
-2.81

$$$$
>  <Mutations>
U7C C11G C62A U96G

>  <Experimental value>
-1.18

$$$$
>  <Mutations>
G39C G69A C115U G120A

>  <Experimental value>
-6.08

$$$$
>  <Mutations>
C56G A100U

>  <Experimental value>
-0.785

$$$$
>  <Mutations>
C13A A16U G117U

>  <Experimental value>
-4.37

$$$$
>  <Mutations>
C72A U81C C82A

>  <Experimental value>
-1.12

$$$$
>  <Mutations>
C12U G39U G113U U116G

>  <Experimental value>
-5.84

$$$$
>  <Mutations>
U7A A43C U129G

>  <Experimental value>
-4.22

$$$$
>  <Mutations>
G48U G57A C62U U78C C114A U133G

>  <Experimental value>
-3.01

$$$$
>  <Mutations>
C70G U130G

>  <Experimental value>
-4.08

$$$$
>  <Mutations>
C53G C104U A111G

>  <Experimental value>
0.815

$$$$
>  <Mutations>
C62A C99U

>  <Experimental value>
-3.69

$$$$
>  <Mutations>
C8G G71A C72A C102A

>  <Experimental value>
-3.77

$$$$
>  <Mutations>
G39C G127C

>  <Experimental value>
-1.46

$$$$
>  <Mutations>
G17C A41U U130A

>  <Experimental value>
-4.18

$$$$
>  <Mutations>
C73A G107C

>  <Experimental value>
-4.16

$$$$
>  <Mutations>
C3U C13U C34U G69U C85U

>  <Experimental value>
-2.76

$$$$
>  <Mutations>
G45A G48A G51U A83U U126G

>  <Experimental value>
-5.24

$$$$
>  <Mutations>
A108U C123A

>  <Experimental value>
-5.15

$$$$
>  <Mutations>
A18C G71C

>  <Experimental value>
-4.19

$$$$
>  <Mutations>
C70U C80U U96A U106C

>  <Experimental value>
-4.08

$$$$
>  <Mutations>
A2G G10C G51C G52U

>  <Experimental value>
-5.66

$$$$
>  <Mutations>
G48U G61A C89A A119U

>  <Experimental value>
-2.48

$$$$
>  <Mutations>
G23A C72U

>  <Experimental value>
-5.21

$$$$
>  <Mutations>
C70A C79A A91C G120U

>  <Experimental value>
-7.09

$$$$
>  <Mutations>
U78C U109A G128A

>  <Experimental value>
-4.56

$$$$
>  <Mutations>
C11G G19C G23A G63A A83C C114U C115U C123G

>  <Experimental value>
-7.99

$$$$
>  <Mutations>
C80G C124A

>  <Experimental value>
-5.18

$$$$
>  <Mutations>
G61A U109C

>  <Experimental value>
-2.02

$$$$
>  <Mutations>
G35C G63A C73A

>  <Experimental value>
-5.71

$$$$
>  <Mutations>
G58A G77U U81A U87C C102A

>  <Experimental value>
-4.48

$$$$
>  <Mutations>
A26G U30A C104G C115A

>  <Experimental value>
-5.53

$$$$
>  <Mutations>
C40A G44A G45U A50C G93A

>  <Experimental value>
-5.29

$$$$
>  <Mutations>
C11A C72G

>  <Experimental value>
-1.14

$$$$
>  <Mutations>
C70G A111C

>  <Experimental value>
-3.24

$$$$
>  <Mutations>
G44C A84C

>  <Experimental value>
-0.969

$$$$
>  <Mutations>
C40U C99A

>  <Experimental value>
-4.45

$$$$
>  <Mutations>
A5U G127U

>  <Experimental value>
-2.48

$$$$
>  <Mutations>
C15U C34A G69C

>  <Experimental value>
-5.57

$$$$
>  <Mutations>
C13U G69A C88U

>  <Experimental value>
-2.75

$$$$
>  <Mutations>
G93C A100C

>  <Experimental value>
-2.34

$$$$
>  <Mutations>
C13U G19A G45C U59C C82U U112A

>  <Experimental value>
0.0802

$$$$
>  <Mutations>
C8A C13U C49G

>  <Experimental value>
0.151

$$$$
>  <Mutations>
G39U U78C U96A

>  <Experimental value>
-4.33

$$$$
>  <Mutations>
C64A U133A

>  <Experimental value>
-6.16

$$$$
>  <Mutations>
C49G G69A A119U U133A

>  <Experimental value>
-3.06

$$$$
>  <Mutations>
U33G G69C C80G A91C U92A C101U C115G

>  <Experimental value>
-7.68

$$$$
>  <Mutations>
U9G G39A A121U U131C

>  <Experimental value>
2.2

$$$$
>  <Mutations>
G51U G60A C124U

>  <Experimental value>
-4.52

$$$$
>  <Mutations>
A50C C104U G110A A118U

>  <Experimental value>
-0.437

$$$$
>  <Mutations>
U59C G60C

>  <Experimental value>
-0.854

$$$$
>  <Mutations>
G47U G51U C124U

>  <Experimental value>
-3.46

$$$$
>  <Mutations>
C80U A84U C89U A119G C123A

>  <Experimental value>
0.318

$$$$
>  <Mutations>
C13G G35U G61U C102U

>  <Experimental value>
-6.42

$$$$
>  <Mutations>
U112G G127C U130C

>  <Experimental value>
-0.498

$$$$
>  <Mutations>
C12G C56A

>  <Experimental value>
0.208

$$$$
>  <Mutations>
A6U G44A G63C G113U

>  <Experimental value>
-5.44

$$$$
>  <Mutations>
C20U C64U C114U A118G U131A

>  <Experimental value>
-0.511

$$$$
>  <Mutations>
C20U G36C C89G

>  <Experimental value>
-3.93

$$$$
>  <Mutations>
C53G G107A

>  <Experimental value>
-5.6

$$$$
>  <Mutations>
C31A G61A C88U

>  <Experimental value>
-5.76

$$$$
>  <Mutations>
G45U G117C

>  <Experimental value>
-4.15

$$$$
